Assign Ragweed plant response rating to each entry below.
system: ragweed (common ragweed, Ambrosia artemisiifolia); test: Test A postemergence, ragweed; assay type: in vivo; conditions: Postemergence, 500 g ai/ha; visual injury vs untreated controls after approx. 10 days; 0 to 100 scale (0 no effect, 100 complete control)
No unit in the answer, only the number.

Name the recorded Ragweed plant response rating for COC1CCN(C(=O)c2cc(NS(=O)(=O)C(F)(F)F)c(C)c(F)c2C)CC1 .
90

Name the recorded Ragweed plant response rating for CCCn1nccc(-c2cc(NS(=O)(=O)C(F)(F)F)c(C)cc2C)c1=O .
20

Name the recorded Ragweed plant response rating for COc1c(Cl)nn(C)c(=O)c1-c1cc(NS(=O)(=O)C(F)(F)F)c(C)cc1C .
0

Name the recorded Ragweed plant response rating for Cc1cc(C)c(N(S(=O)(=O)C(F)(F)F)S(=O)(=O)C(F)(F)F)cc1C1=NOC(C(C)(C)C)C1 (stereo not shown) .
50

Name the recorded Ragweed plant response rating for Cc1cc(C)c(C2=NOC3(C2)CC(C)OC(C)C3)cc1NS(=O)(=O)C(F)(F)F (single isomer, unassigned) .
90

Name the recorded Ragweed plant response rating for COc1cc(C)c(NS(=O)(=O)C(F)(F)F)cc1-c1ccnn(C)c1=O .
60

Name the recorded Ragweed plant response rating for Cc1cc(C)c(C(=O)N2CCC3(CCCCC3)CC2)cc1NS(=O)(=O)C(F)(F)F .
50

Name the recorded Ragweed plant response rating for Cc1cc(C(F)(F)F)c(C(=O)N(C)C)cc1NS(=O)(=O)C(F)(F)F .
80

Name the recorded Ragweed plant response rating for Cc1cc(F)c(C(=O)N(C)C)cc1NS(=O)(=O)C(F)(F)F .
80

Name the recorded Ragweed plant response rating for CCN(CC)C(=O)c1cc(NS(=O)(=O)C(F)(F)F)c(C)cc1C .
70

Name the recorded Ragweed plant response rating for Cc1cc(C)c(C2=NOC3(CCOCC3)C2)cc1NS(=O)(=O)C(F)(F)F .
90

Name the recorded Ragweed plant response rating for CC(=O)OCN(c1cc(C2=NO[C@@H]3CCC[C@H]23)c(C)cc1C)S(=O)(=O)C(F)(F)F (relative stereo) .
90

Name the recorded Ragweed plant response rating for Cc1cc(C)c(C(=O)N2CCC(CC(F)(F)F)CC2)cc1NS(=O)(=O)C(F)(F)F .
50

Name the recorded Ragweed plant response rating for Cc1cc(C(F)(F)F)c(C(=O)N2CCCCC2)cc1NS(=O)(=O)C(F)(F)F .
70

Name the recorded Ragweed plant response rating for Cc1cc(F)c(C(=O)N2CCC(C#N)CC2)cc1N(S(=O)(=O)C(F)(F)F)S(=O)(=O)C(F)(F)F .
0

Name the recorded Ragweed plant response rating for Cc1cc(C)c(C2=NOC3CCCCC23)cc1NS(=O)(=O)C(F)(F)F (stereo not shown) .
70
